IC50 listing for selected compounds.
# System: DU-145
# protocol details: Cell growth inhibition assay, prostate cancer cell line DU-145
# Assay type: cell-based
# cond: Homo sapiens, DU-145 prostate cancer cell line

{"structure string": "CS(=O)(=O)Nc1cc2cc(C(=O)Nc3cc(Cl)cc(Oc4cc(F)cc(Cl)c4)c3)sc2cc1Cl", "test system": "DU-145", "IC50": "0.01 µM"}
{"structure string": "CC(C)(c1cc(Br)cc(NC(=O)c2cc3ccc(NS(C)(=O)=O)cc3[nH]2)c1)c1ccc(F)cc1F", "test system": "DU-145", "IC50": "0.25 µM"}
{"structure string": "CN(c1ccc2cc(C(=O)Nc3cccc(-c4ccccc4C(F)(F)F)c3)[nH]c2c1)S(C)(=O)=O", "test system": "DU-145", "IC50": "0.37 µM"}
{"structure string": "CCOc1cc(OC(F)(F)F)cc(C(C)(C)c2cc(Br)cc(NC(=O)c3cc4cc(NS(C)(=O)=O)ncc4s3)c2)c1", "test system": "DU-145", "IC50": "0.06 µM"}
{"structure string": "CS(=O)(=O)Nc1ccc2sc(C(=O)Nc3cc(Cl)cc(Oc4cccc(C(F)(F)F)c4)c3)cc2c1", "test system": "DU-145", "IC50": "0.19 µM"}
{"structure string": "CS(=O)(=O)Nc1ccc2sc(C(=O)Nc3cc(Cl)cc(Oc4ccc(F)c(OC(F)(F)F)c4)c3)cc2c1", "test system": "DU-145", "IC50": "0.043 µM"}
{"structure string": "CS(=O)(=O)Nc1ccc2sc(C(=O)Nc3cc(Cl)cc(Oc4ccc(Cl)cc4)c3)cc2c1", "test system": "DU-145", "IC50": "0.055 µM"}
